From various publications: pIC50 for BRD4 (Homo sapiens (Human), UniProt O60885).
pIC50: −log10 of the molar value.
Criterion met means recorded pIC50 is 7 or above; Criterion not met means it is below 7.

MOLECULE: COc1cc(N2C(=O)c3nc(C4CCOCC4)n(C(C)C)c3C2c2ccc(Cl)cc2)cc2c1nnn2C (racemic)
GROUP: Criterion met
--
MOLECULE: Cc1cc(N2C(=O)c3nc(C)n(C(C)C)c3C2c2ccc(Cl)cc2)nn2c(C(F)F)nnc12 (stereo not drawn)
GROUP: Criterion met
--
MOLECULE: CCOC(=O)N1CC(n2nc(C)c3c2C(=O)N(c2cc(C)c4nnc(C)n4c2)C3c2ccc(Cl)cc2)C1 (stereo not drawn)
GROUP: Criterion met
--
MOLECULE: Cc1noc(C)c1-c1cnc2c3ccc(C(C)O)nc3n(C(c3ccccc3)C3CCOCC3)c2c1 (stereo not drawn)
GROUP: Criterion met
--
MOLECULE: COc1ncccc1-c1nc2c(n1C(C)C)[C@@H](c1ccc(Cl)cc1)N(c1cc(OC)c3nnn(C)c3c1)C2=O
GROUP: Criterion met
--
MOLECULE: Cc1cc(N2C(=O)c3nc(C4=CCN(C)CC4)n(C4COC4)c3C2c2ccc(Cl)cc2)cc2c1nnn2C (stereo not drawn)
GROUP: Criterion met

Prompt: Is pIC50 at least 7? Consider COc1cc(N2C(=O)c3nc(C4CCN(C)CC4)n(C(C)C)c3C2c2ccc(Cl)cc2)cc2c1nnn2C (stereo not drawn)
Completion: Criterion met

Prompt: Can COc1ccc(-c2nc3c(n2C)C(c2ccc(Cl)cc2)N(c2cc(C)c4nnc(C)n4c2)C3=O)cn1 (stereo not drawn) be said to have pIC50 at or above 7?
Completion: Criterion met

Prompt: Form field: pIC50 at least 7? Entry: Cn1cc(N2C(=O)c3cc(-c4cccc(=O)n4C)n(C4CC4)c3C2c2ccc(Cl)cc2)cc(Cl)c1=O (stereo not drawn)
Completion: Criterion not met

Prompt: Is pIC50 at least 7? Consider Cc1nn(C)c2c1C(c1ccc(Cl)cc1)N(c1ccc(=O)n(C)c1)C2=O (stereo not drawn)
Completion: Criterion not met

Prompt: Exam item: decide whether the reported pIC50 for CNc1cc(N2C(=O)c3c(c(C)nn3C3CC3)[C@H]2c2ccc(Cl)cc2)nn2c(C)nnc12 is at least 7.
Completion: Criterion met

----------
Multi-source literature compilation: IC50 on BRD4 (Homo sapiens (Human)).
The threshold is 0.04 µM. Values of IC50 beneath it are tagged MET; values meeting or exceeding it are tagged NOT MET.

COMPOUND: Cc1cc(N2C(=O)c3nc(C4=CCCN(C)C4)n(C(C)C)c3C2c2ccc(Cl)cc2)cn2c(C)nnc12 (stereo not drawn)
GROUP: MET
//
COMPOUND: Cn1cc(N2C(=O)c3n[nH]cc3C2c2ccc(Cl)cc2)cc(Cl)c1=O (stereo not drawn)
GROUP: NOT MET
//
COMPOUND: CCOC(=O)n1ccc2c1C(c1ccc(Cl)cc1)N(c1cc(C)c3nnc(C)n3c1)C2=O (stereo not drawn)
GROUP: MET
//
COMPOUND: CCc1nn(CCO)c2c1C(c1ccc(Cl)cc1)N(c1cc(C)c3onc(C)c3c1)C2=O (stereo not drawn)
GROUP: NOT MET
//
COMPOUND: Cc1cn(C2COC2)c2c1C(=O)N(c1cc(C)c3nnc(C)n3c1)C2c1ccc(Cl)cc1 (stereo not drawn)
GROUP: MET

Now, please, on to the next compound.
Prompt: Just wondering, is IC50 of Cc1[nH]nc2c1C(c1ccc(Cl)cc1)N(c1cc(C)c(=O)n(C)c1)C2=O (stereo not drawn) below 0.04 µM?
Completion: NOT MET

----------
Listing of pIC50 toward BRD4 (Homo sapiens (Human)), each taken from a published source.
# pIC50 = -log10(concentration in molar units)

Here is how some compounds turned out for pIC50.
COMPOUND: Cc1cc(N2C(=O)c3nc(C4=CCOCC4)n(C(C)C)c3C2c2ccc(Cl)cc2)cc2c1nnn2C (stereo not shown)
VALUE_OBSERVED: 7.59
--
COMPOUND: CC(=O)N1CC(n2nc(C)c3c2C(=O)N(c2cc(C)c(=O)n(C)c2)C3c2ccc(Cl)cc2)C1 (stereo not shown)
VALUE_OBSERVED: 6.85
--
COMPOUND: COc1ncccc1-c1nc2c(n1C(C)C)C(=O)N(c1cc(C)c(=O)n(C)c1)C2c1ccc(Cl)cc1 (stereo not shown)
VALUE_OBSERVED: 7.41

Next compound, please.
Lab book: pIC50 of Cn1ccc2c1[C@@H](c1ccc(Cl)cc1)N(c1cc(Cl)c(=O)n(C)c1)C2=O noted as 6.96

----------
Below are pIC50 measurements against UniProt O60885 drawn from the literature.
pIC50: −log10 of the molar value.
Note to self: values exactly at 7 are met. So pIC50 at or above 7 is met, below is not met.

Check out these entries, answers already filled in.
COMPOUND: Cc1noc(C)c1-c1cnc2c3cnc(C(C)(C)O)cc3n(C(c3ccccc3)c3cscn3)c2c1 (stereo not drawn)
GROUP: met
//
COMPOUND: Cc1cc(N2C(=O)c3c(C4CC4)nn(C[C@@H](O)C(F)(F)F)c3[C@H]2c2ccc(Cl)cc2)cn2c(C)nnc12
GROUP: met
//
COMPOUND: CCOC(=O)c1cc2c(cn1)c1ncc(-c3c(C)noc3C)cc1n2C(c1ccccc1)C1CCOCC1 (stereo not drawn)
GROUP: met

Prompt: Decide: pIC50 of COc1ccccc1-n1nc(C)c2c1C(=O)N(c1cc(C)c3nnc(C)n3c1)C2c1ccc(Cl)cc1F (stereo not drawn) >= 7?
Completion: met

Prompt: Evaluate COc1cc(N2C(=O)c3nc(C4=CCN(C)CC4)n(C(C)C)c3C2c2ccc(Cl)cc2)cc2c1nnn2C (stereo not drawn) : pIC50 at minimum 7?
Completion: met

Prompt: Is pIC50 for Cc1cn(CCO)c2c1C(=O)N(c1cc(C)c3nnc(C)n3c1)C2c1ccc(Cl)cc1 (stereo not drawn) at or above 7?
Completion: met

Prompt: Test whether the compound COc1ncccc1-c1nc2c(n1C(C)C)C(c1ccc(Cl)cc1)N(c1cc(C)c3nnc(CF)n3c1)C2=O (stereo not drawn) records pIC50 of 7 or higher.
Completion: met

Prompt: Decide: pIC50 of CONC(=O)c1ccc2c(c1)N(c1ccc(Cl)cc1)CCn1nnc(C)c1-2 >= 7?
Completion: met

----------
Please find below pIC50 measurements for BRD4 (Homo sapiens (Human)), combined from several publications.
When answering, recall that pIC50 equals minus log10 of the concentration in mol/L, and write that number alone.

Answered examples (5):
COMPOUND: COc1ncc(-n2nc3c(c2C(C)C)C(c2ccc(Cl)cc2)N(c2cc(C)c4nnc(C)n4c2)C3=O)c(OC)n1 (stereo not shown)
TGT: BRD4 (Homo sapiens (Human))
QUANTITY_KIND: pIC50
VALUE_OBSERVED: 7.62
//
COMPOUND: Cc1cc(N2C(=O)c3nc(C4=CCN(C)CC4)n(C(C)C)c3C2c2ccc(Cl)cc2)cn2c(C)nnc12 (stereo not shown)
TGT: BRD4 (Homo sapiens (Human))
QUANTITY_KIND: pIC50
VALUE_OBSERVED: 7.57
//
COMPOUND: Cc1cc(N2C(=O)c3c(C4CC4)nn(-c4ccnn4C)c3C2c2ccc(Cl)cc2)cc2c1nnn2C (stereo not shown)
TGT: BRD4 (Homo sapiens (Human))
QUANTITY_KIND: pIC50
VALUE_OBSERVED: 7.77
//
COMPOUND: Cc1cc(N2C(=O)c3nc(C4=CCOCC4)[nH]c3[C@H]2c2ccc(Cl)cc2)cn(C)c1=O
TGT: BRD4 (Homo sapiens (Human))
QUANTITY_KIND: pIC50
VALUE_OBSERVED: 7.60
//
COMPOUND: Cn1cc(N2C(=O)c3c(cnn3C3CC3)C2c2ccc(Cl)cc2)cc(Cl)c1=O (stereo not shown)
TGT: BRD4 (Homo sapiens (Human))
QUANTITY_KIND: pIC50
VALUE_OBSERVED: 6.82

# compound COc1ncc(-n2nc3c(c2C)C(c2ccc(Cl)cc2)N(c2cc(Cl)c(=O)n(C)c2)C3=O)c(OC)n1 (stereo not shown) ; its pIC50 = 6.82

----------
Compiled record: IC50 values for BRD4 (Homo sapiens (Human)) across several sources.
Write the value in nM as a bare number.

COMPOUND: CC(=O)N1CC=C(c2nc3c(n2C(C)C)C(c2ccc(Cl)cc2)N(c2cc(C)c4nnc(C)n4c2)C3=O)CC1 (stereo not shown)
U: nM
IC50: 31.5
//
COMPOUND: Cn1c(-c2ccn(C)c(=O)c2)cc2c1C(c1ccc(Cl)cc1)N(c1cc(Cl)c(=O)n(C)c1)C2=O (stereo not shown)
U: nM
IC50: 85
//
COMPOUND: Cc1nn(C2COC2)c2c1C(c1ccc(Cl)cc1)N(c1cc(C)c(=O)n(C)c1)C2=O (stereo not shown)
U: nM
IC50: 140

Result for CCOC(=O)Nc1cn(C)c2c1C(=O)N(c1cc(C)c3nnn(C)c3n1)C2c1ccc(Cl)cc1 (stereo not shown) , tested on BRD4 (Homo sapiens (Human)), IC50: 35
